The measurements presented in this section are drawn from PubChem BioAssay (NCI).

# experiment-description: NCI Yeast Anticancer Drug Screen. Data for the mlh1 rad18 strain (AID 175)
# experimental-parameters: S. cerevisiae mlh1 rad18 strain growth inhibition; at 50.0 µM
# Protocol: Growth inhibition of yeast strains with defined genetic alterations is measured as a screen for potential anti-cancer activity. Selected strains with alterations in DNA damage repair or cell cycle control were exposed to compounds and growth inhibition was measured relative to vehicle treated controls. The strain used in this assay is mlh1 rad18
The panel holds about 79,000 compounds, 15% with a hit somewhere; the sample as a whole holds those more often. Activity calls are given as the source filed them. Cut-off read from the data, not from the text of the source: active = growth inhibition above about 70%; inactive = the rest.
Result category, one only: 1.0 for active, 0.0 for inactive

So what was the verdict on O=C(Oc1ccco1)c1ccc([N+](=O)[O-])cc1 in this test?
0.0

Same thing, different compound: COC(=O)CN(C(=O)c1ccc(OC(C)=O)cc1)c1ccccc1
0.0

Same thing, different compound: CN(C)CC(CN(C)C)C(=O)/C=C/c1ccc(O)cc1
0.0

Same thing, different compound: CCCCC(CC)CC#N (stereo not drawn)
0.0

Same thing, different compound: CCCCCCCCOC1OC(COC(C)=O)C(OC(C)=O)C(OC(C)=O)C1OC(C)=O (stereo not drawn)
0.0

Same thing, different compound: O=C1/C(=C/c2ccccc2)CN(C(=O)CCN2CCOCC2)C/C1=C\c1ccccc1
1.0

Same thing, different compound: NC1CC(=O)N(Cc2ccccc2)C1=O (stereo not drawn)
0.0

Same thing, different compound: CC(C)(C)c1ccc(-n2c3nc(=O)n(-c4ccccc4CO)c(=O)c-3cc3ccccc32)cc1
0.0

Same thing, different compound: CCCCCCCCCCCCCCCCc1c(C(=O)OC)[nH]c(=S)[nH]c1=O
0.0

Same thing, different compound: COc1ccc2c(c1)C=C(C(C)(C)C)NS2(=O)=O
0.0

Same thing, different compound: CC(C)NC(=O)OCc1c(COC(=O)NC(C)C)n(C)c2c1ccc1ccccc12
1.0

Same thing, different compound: CN(C)Cn1c2ccccc2c2ccccc21
0.0

Same thing, different compound: COC(=O)CCc1cc(=O)oc2ccc3cc(CC(=O)OC)oc3c12
0.0

Same thing, different compound: CCN1CSC(=S)N(Cc2ccccc2)C1
0.0

Same thing, different compound: COc1cc(/C=C/C(=O)OCC23CC[C@@]4(C(=O)O)CCC(C)[C@H](C)C4C2=CCC2[C@@]4(C)CC[C@H](O)C(C)(C)C4CC[C@]23C)ccc1O (stereo partly drawn)
0.0

Same thing, different compound: Cc1ccc(S(=O)(=O)CN2CCC(=O)c3ccccc32)cc1
0.0

Same thing, different compound: CCCCCCCC(=O)Nc1ccc(-n2c(=O)cc(C)n2C)cc1
0.0

Same thing, different compound: CCc1n[nH]c(=O)n1NC(=O)/C=C\C(=O)O
0.0

Same thing, different compound: O=NN(C(=O)NCCCl)c1[nH]c(=O)ncc1I
0.0

Same thing, different compound: CCOc1c(/C=C\c2cc(/C=C/c3cccc(OC)c3OCC)c([N+](=O)[O-])cc2[N+](=O)[O-])cccc1OC
0.0

Same thing, different compound: CCOC(OCC)C(N)=O
0.0

Same thing, different compound: CCOC(=O)C(C)(C(=O)OCC)n1cnc2c1c(=O)n(C)c(=O)n2C
0.0

Same thing, different compound: COC(=O)c1cc2ccccc2n1C
0.0

====

Give measured growth inhibition for each item. Keep answers brief.
# experiment-description: NCI Yeast Anticancer Drug Screen. Data for the bub3 strain (AID 167)
# experimental-parameters: S. cerevisiae bub3 mutant strain, at 50.0 µM, active compounds read high
This is part of a sample that, as a whole, favours compounds with a hit. Of some 79,000 tested, about 15% had one in any assay.
Your answer is read as %, so omit the unit and give the number.

Please report the recorded growth inhibition for CCCCN(CCCC)CCCNC(=S)Nc1ccccc1 .
3.25

Same thing, different compound: CC1(c2ccccc2)OCCCO1
-2.5

Same thing, different compound: c1ccc(CNc2ncccn2)nc1
-10

Same thing, different compound: Cc1ncc2c(n1)NC(c1ccc([N+](=O)[O-])cc1)NC2 (stereo not drawn)
14.7

Same thing, different compound: CNC(=O)n1c(N)nc(-c2ccccc2)c1-c1ccccc1
-22.1

Same thing, different compound: Cc1cc2nc(/N=C/c3nc(O)c(C)[nH]3)[nH]c2cc1C
14.1

Same thing, different compound: COC(=O)CCN(C)c1ccccc1
3.65

Same thing, different compound: CCCCN(CC)C(=O)C(=O)Cc1nc2ccc(C(=O)c3ccccc3)cc2[nH]c1=O
4.2

Same thing, different compound: CCOC(=O)NNC(N)=O
1.8

Same thing, different compound: CCC(NC(C)c1ccccc1)C(O)c1ccc(OCc2ccccc2)c(OCc2ccccc2)c1 (stereo not drawn)
91.5

Same thing, different compound: CCCCCCCCCCCCCCCCCCNc1ccccc1
1.15

Same thing, different compound: COC(=O)[C@H]1[C@H]2C[C@@H]3c4[nH]c5ccccc5c4CCN3C[C@H]2C[C@@H](O)[C@@H]1OC(=O)c1cc(OC)c(OC)c(OC)c1
21

Same thing, different compound: Cc1ccc(S(=O)(=O)Oc2ccc(-c3ccc([N+](=O)[O-])cc3)cc2)cc1
-1.8

Same thing, different compound: CN1C(c2ccccc2)=C(C#N)C(=O)CC(c2cccs2)N1C (stereo not drawn)
8.15

Same thing, different compound: C=CC(=O)OCc1ccc(OC)cc1
5.95

Same thing, different compound: CCCCOC(=O)c1ccc(O)cc1.[Zn+2]
-22.4

Same thing, different compound: O=S(=O)(Nc1ncccn1)c1ccc(N=NSC2=NC=NC3=NC=NC32)cc1 (stereo not drawn)
0.05

Same thing, different compound: CCC(O)C1CCCCN1 (stereo not drawn)
-17.5

Same thing, different compound: O=C(O)c1ccc(Nc2nc3ccccc3nc2-c2cccs2)cc1
12.2

Same thing, different compound: CCc1[nH]c2ccc(C)cc2c1C(=O)c1cccnc1
21.3

Same thing, different compound: CC(Nc1cccc(Cl)c1)S(=O)(=O)O (stereo not drawn)
2

Same thing, different compound: CCCCOc1ccc2c(c1)CC[C@@H]1[C@@H]2CC[C@]2(C)C(=O)N(CCCC)C(=O)C[C@@H]12
16.5

Same thing, different compound: Cc1cc(Cl)ccc1NC(=O)C(=O)C(C(=O)c1ccccc1)C1OC(=O)c2ccccc21 (stereo not drawn)
-3.25

Same thing, different compound: CC(C)(C#N)OC(=O)c1cccc(C(=O)OC(C)(C)C#N)c1Sc1ccccc1
-2

Same thing, different compound: CCCCNc1nnc(N)s1
-2.2

Same thing, different compound: O=c1c(-c2ccc(O)cc2)coc2cc(OC3OC(CO)C(O)C(O)C3O)cc(O)c12 (stereo not drawn)
-60.2

Same thing, different compound: O=C(Nc1ccc(Cl)c(Cl)c1)OCCN1CCOCC1
91.2

Same thing, different compound: O=c1[nH]c(=O)n(C2CC(O)C(CO)O2)cc1C#Cc1ccc(C(F)(F)F)cc1 (stereo not drawn)
19.2

Same thing, different compound: CC1CC(C)SC(C)S1 (stereo not drawn)
-2.7

Same thing, different compound: O=C(c1ccccc1)C1CCC(C(=O)c2ccccc2)C1=O (stereo not drawn)
7.3

Same thing, different compound: C=CC(C)(C)/C=C/C=O
24.6

Same thing, different compound: CCCC(CCC)(C(=O)OCC)C(=O)OCC
-4.25

Same thing, different compound: N#CSCC(=O)CCC(=O)O
3.75

Same thing, different compound: CO/N=C(\C([O-])=N\[n+]1cnn(CC(=O)OC(C)(C)C)c1)c1csc(NC(c2ccccc2)(c2ccccc2)c2ccccc2)n1
15.3

Same thing, different compound: O=c1ccn2n1Cc1ccccc1C2
-6.05

Same thing, different compound: COc1cc2c3c(c1)[nH]c(=S)n3C(=O)CS2
-18.7

Same thing, different compound: OCCN(CCO)c1cc(/C=C/c2cccc3ccccc23)nc2ccccc12
-6.5

Same thing, different compound: CCC(S)(C(N)=O)c1ccccc1 (stereo not drawn)
-4.8

Same thing, different compound: O=C1CSC(C(N=Nc2ccc(Cl)cc2)c2nc3ccccc3[nH]2)=N1 (stereo not drawn)
-42.6

Same thing, different compound: COC1CCC(C2=NC3CCCCC3SC2)CC1 (stereo not drawn)
54.8

Same thing, different compound: Cc1ccc(C(=O)/C=C/c2ccc(N(C)C)cc2)cc1
29.4

Same thing, different compound: O=c1ccc2c(-c3ccccc3S(=O)(=O)O)c3ccc(O)c(O)c3oc-2c1O
15.6

Same thing, different compound: OCCCCN(CCO)CCCCO
13.9

Same thing, different compound: NC(Cc1ccc(OC(c2ccccc2)c2ccccc2)cc1)C(=O)O (stereo not drawn)
-13.6

Same thing, different compound: Cc1cn(C2CC(C)N(CCO)O2)c(=O)[nH]c1=O (stereo not drawn)
-14.9

Same thing, different compound: C=CC(C)(C)[C@@]12CC3C(=O)N[C@@H](Cc4ccccc4)C(=O)N3[C@@H]1N(C(C)=O)c1ccccc12 (stereo partly drawn)
45.6

Same thing, different compound: O=c1oc2c(CN3CCOCC3)c(O)ccc2c2c1CCCC2
43.6

Same thing, different compound: O=C(O)C1c2ccccc2-c2ccccc21
37.6
